Data provenance is patent US20190367619A1.

Molecular target: T1, cynomolgus galectin-10-His, WGS isoform (cynomolgus)
T1 construct: not shown: His tag
T1 chain: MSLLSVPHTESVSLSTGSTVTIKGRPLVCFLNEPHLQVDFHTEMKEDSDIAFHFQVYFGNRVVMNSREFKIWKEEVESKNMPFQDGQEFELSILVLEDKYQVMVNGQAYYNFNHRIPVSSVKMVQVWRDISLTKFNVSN
Assay: ELISA, Gal10-His coated at 1 ug/mL, VHH titrated, anti-Myc-HRP
Experimental: The binding capacity of the 15 VHH clones was analysed by ELISA. Briefly, a Maxisorp plate was coated overnight with human or cynomolgus WGS or YRT isoforms galectin-10-His at 1 μg/mL and blocked with PBS 1% casein, before being incubated with a serial dilution of the VHH (from 4 μM, dilution 1/3, 12 points of dilutions). […] Absorbance was measured at 450 nm (reference at 620 nm) with Tecan instrument. Finally, the raw data (OD values) were plotted on GraphPad Prism 7.01. […]
pEC50: −log10 of the molar value.
Would you please tag the item criterion met when its pEC50 is 7 or above, and criterion not met when it is below?

VHH clone 13G12 (VHH, Purified VHH-Myc-His from E. coli; not shown: Myc and His tags of the phagemid vector) VHH: QLQVVESGGGLVQAGGSLRLSCAASSSAYSMGWFRQAPGKEREFVAVISWSGGSHYDDSVKGRFTISRDGAKNTVYLQMNSLKPEDTAVYYCAVGTLYSFRYRDYDYWGQGTQVTVSS	criterion met

Query block: Please tell me: is the binder VHH clone 13C07 (VHH, Purified VHH-Myc-His from E. coli; not shown: Myc and His tags of the phagemid vector) VHH: QLQVVESGGGLVQAGGSLRLSCAASSSAYSMAWFRQAPGKEREFVAAITWSGGSHHDDSVKGRFTISRDGAKNTVYLQMNSLKPEDTAVYYCAVGTLYSFSYRDYDYWGQGTQVTVSS at or over 7 in terms of pEC50?
Result block: criterion met

Query block: Please tell me: is the binder VHH clone 14F10 (VHH, Purified VHH-Myc-His from E. coli; not shown: Myc and His tags of the phagemid vector) VHH: EVQLVESGGGLVQAGDSLRLSCAASGRTFSGYAVGWFRQAPGKEREFVTIISWNGGTHYADSVKGRFAISRDNAKNTVYLQMNNLKPEDTAVYYCAVSPKYYFSPETYNYWGQGTQVTVSS at or over 7 in terms of pEC50?
Result block: criterion met

Query block: Please tell me: is the binder VHH clone 13C06 (VHH, Purified VHH-Myc-His from E. coli; not shown: Myc and His tags of the phagemid vector) VHH: QLQLVESGGGLVQAGGSLRLSCAASSSSYSMGWFRQAPGKEREFVATISWSGGFYYDDSVKGRFTVSRDNAKNTVYLQMNSLKPEDTAVYYCAAGTRFSFSYREYHYWGQGTQVTVSS at or over 7 in terms of pEC50?
Result block: criterion met

Query block: Please tell me: is the binder VHH clone 13H07 (VHH, Purified VHH-Myc-His from E. coli; not shown: Myc and His tags of the phagemid vector) VHH: QLQLVESGGGLVQAGGSLRLSCVASGRTFSTYAMDWFRQAPGKEREFVAAISWHSAIYYADAVKGRFTISRDNGKNTMYLQMNNLKPEDTAVYFCAAALRYRFNPSAMEYWGKGTLVTVSS at or over 7 in terms of pEC50?
Result block: criterion met

Query block: Please tell me: is the binder VHH clone 13E07 (VHH, Purified VHH-Myc-His from E. coli; not shown: Myc and His tags of the phagemid vector) VHH: ELQVVESGGGLVQAGDSLRLSCAVSGRTFSSYHMMWFRQAPGKEREFVAAIAWRGGTYCANSVKGRCTISRDNAKDTVYLQMNSLKPEDTAVYFCAASLRYVFDPSAMDYWGKGTLVTVSS at or over 7 in terms of pEC50?
Result block: criterion not met
